Hey, just so you know, these numbers are from patent US20260137819A1.

EC50 overview
Target: human follicle-stimulating hormone receptor (FSHR) (Homo sapiens, UniProt P23945)
Construct: host or cells: CHO-K1
Sequence (P23945 18-695): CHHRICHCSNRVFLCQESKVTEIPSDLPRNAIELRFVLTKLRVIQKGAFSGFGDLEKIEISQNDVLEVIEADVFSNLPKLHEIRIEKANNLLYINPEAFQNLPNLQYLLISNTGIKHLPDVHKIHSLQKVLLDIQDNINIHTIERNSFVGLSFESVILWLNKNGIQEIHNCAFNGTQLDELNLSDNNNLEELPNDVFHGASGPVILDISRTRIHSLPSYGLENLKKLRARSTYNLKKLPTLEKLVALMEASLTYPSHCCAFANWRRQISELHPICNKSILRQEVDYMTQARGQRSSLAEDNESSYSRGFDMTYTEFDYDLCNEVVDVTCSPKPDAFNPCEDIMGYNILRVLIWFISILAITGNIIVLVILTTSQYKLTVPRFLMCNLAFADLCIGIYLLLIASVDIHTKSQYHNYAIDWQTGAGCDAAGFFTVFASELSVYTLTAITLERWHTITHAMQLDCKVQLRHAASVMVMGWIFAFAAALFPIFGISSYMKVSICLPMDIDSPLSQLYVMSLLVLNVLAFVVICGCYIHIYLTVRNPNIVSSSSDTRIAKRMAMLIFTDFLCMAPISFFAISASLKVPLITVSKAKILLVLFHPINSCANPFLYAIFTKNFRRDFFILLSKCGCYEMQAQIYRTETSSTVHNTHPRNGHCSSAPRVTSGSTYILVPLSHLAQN
Test: Measurement of agonist cAMP production by activation of human FSHR
Type: cell-based
Conditions: CHO-K1 human FSHR cells, 30 minutes at 37° C., HTRF cAMP kit; read-out: hFSHR Agonist cAMP EC50
Starred links: 1 amine or outer side, 2 acyl side, 3 side chain; linkers in the order of their positions; H or OH if unused. Non-standard residues stand in square brackets, D forms with d. Residues, ends and D or L forms follow the SMILES beside them. Groups on a side chain read outwards from the residue. *: point of attachment. X1 = COc1cc2c(cc1-c1cccc(N*)c1)-c1c(c(C(=O)N3CCOCC3(C)C)nn1-c1cc(Cl)cc(Cl)c1)CO2; DOTA = O=C(O)CN1CCN(CC(=O)O)CCN(CC(=O)*)CCN(CC(=O)O)CC1; Suc = O=C(CCC(=O)[*:2])[*:1]

// worked examples, EC50 included
1. COc1cc2c(cc1-c1cccc(NC(=O)CCOCCNC(=O)CN3CCN(CC(=O)O)CCN(CC(=O)O)CCN(CC(=O)O)CC3)c1)-c1c(c(C(=O)N3CCOCC3(C)C)nn1-c1cc(Cl)cc(Cl)c1)CO2 = < 10 nM
2. COc1cc2c(cc1-c1cccc(NCCOCCOCCOCCOCCNC(=O)[C@H](CS(=O)(=O)O)NC(=O)CN3CCN(CC(=O)O)CCN(CC(=O)O)CCN(CC(=O)O)CC3)c1)-c1c(c(C(=O)N3CCOCC3(C)C)nn1-c1cc(Cl)cc(Cl)c1)CO2 = < 10 nM
3. COc1cc2c(cc1-c1cccc(NC(=O)CCC(=O)NCCCC[C@@H](NC(=O)[C@@H](CCC(=O)O)NC(=O)[C@@H](CCC(=O)O)NC(=O)[C@@H](C)NC(=O)CN3CCN(CC(=O)O)CCN(CC(=O)O)CCN(CC(=O)O)CC3)C(=O)N[C@H](CCC(=O)O)C(=O)N[C@H](CCC(=O)O)C(=O)N[C@H](C)C(N)=O)c1)-c1c(c(C(=O)N3CCOCC3(C)C)nn1-c1cc(Cl)cc(Cl)c1)CO2 [Compound 88] ({DOTA}-[dA][dE][dE][dK]([Suc-X1])[dE][dE][dA]-NH2) = 10 to 100 nM

# next molecule below
Exercise: Which EC50 value is on record for COc1cc2c(cc1-c1cccc(OCCCNC(=O)[C@@H](CCC(=O)O)NCCOCCNC(=O)[C@H](CS(=O)(=O)O)NC(=O)CN3CCN(CC(=O)O)CCN(CC(=O)O)CCN(CC(=O)O)CC3)c1)-c1c(c(C(=O)N3CCOCC3(C)C)nn1-c1cc(Cl)cc(Cl)c1)CO2 ?
Solution: 10 to 100 nM
